Reference source for all entries: patent US20250205185A1

Test: Microscope observation of taurine crystals (Test Example 1)
Assay type: physicochemical
Settings: observed with a microscope; length = major axis
Label scheme for Maximum particle size (length) μm: lower than 700 μm is NOT MET, 700 μm and above is MET.

Illustrative cases are given below, each with its answer.
[[record]]
compound = "NCCS(=O)(=O)O [Comparative Example 2, taurine]"
label_value = "MET"

[[record]]
compound = "NCCS(=O)(=O)O [Example 4, taurine]"
label_value = "NOT MET"


Is Maximum particle size (length) μm at least 700 μm? Consider NCCS(=O)(=O)O [Example 9, taurine]
NOT MET

And then NCCS(=O)(=O)O [Example 5, taurine] , what is it?
MET

Also NCCS(=O)(=O)O [Example 8, taurine] , if possible.
NOT MET

Please give the result for NCCS(=O)(=O)O [Example 1, taurine] too.
NOT MET

---

Assay: Microscope observation of taurine crystals (Test Example 1)
Assay type: physicochemical
Conditions: observed with a microscope; length = major axis
Quick rule: Maximum particle size (length) μm of at least 200 μm means Y, below that means N.

Solved entries (count: 5):
[[record]]
compound = "NCCS(=O)(=O)O [Example 10, taurine]"
label_value = "Y"

[[record]]
compound = "NCCS(=O)(=O)O [Comparative Example 1, taurine]"
label_value = "Y"

[[record]]
compound = "NCCS(=O)(=O)O [Example 2, taurine]"
label_value = "N"

[[record]]
compound = "NCCS(=O)(=O)O [Example 3, taurine]"
label_value = "N"

[[record]]
compound = "NCCS(=O)(=O)O [Example 6, taurine]"
label_value = "Y"


Entry NCCS(=O)(=O)O [Example 11, taurine] : is its Maximum particle size (length) μm no less than 200 μm?
Y

Next entry: NCCS(=O)(=O)O [Comparative Example 3, taurine, reference compound]
Y

Item: NCCS(=O)(=O)O [Example 7, taurine]
Y
